# Tested on: Rattus norvegicus
# ASSAY PROTOCOL: Compound was tested for hypotensive activity by measuring the average change in mean arterial blood pressure in mmHg after 24 hr at 50 mg/Kg oral dosing of a conscious rat
# Assay type: functional, Artery
PARAMETER: Activity (mmHg)
Numbers only, in mmHg.

Answered examples (3):
{"columns": ["STRUCTURE", "Activity / mmHg"],
 "data": [
  ["Fc1ccc(N2CCN(Cc3ccc(Nc4ccnc5cc(C(F)(F)F)ccc45)cc3)CC2)cc1", -18],
  ["COc1cc(N2CCN(C(=O)c3ccc(Nc4ccnc5cc(C(F)(F)F)ccc45)cc3)CC2)nc(OC)n1", -29],
  ["Cc1cc(N2CCN(C(=O)c3ccc(Nc4ccnc5cc(C(F)(F)F)ccc45)cc3)CC2)nc(N)n1", -4]
]}

Let us examine a further case.
Ask: Using the record for `O=C(c1ccc(Nc2ccnc3cc(C(F)(F)F)ccc23)cc1)N1CCN(c2[nH]cnc3ncnc2-3)CC1` , report its Activity.
Reply: -3

###

Provide the recorded Dose for the entries that follow.
# Species on record: Mus musculus
# ASSAY PROTOCOL: Lowest dose of compound associated with unacceptable clinical signs.
# Format: functional
Numbers only, in mg/kg.

Answered examples (3):
{"columns": ["STRUCTURE", "PARAMETER", "EXPERIMENTAL VALUE"],
 "data": [
  ["O=C(c1ccc(Nc2ccnc3cc(C(F)(F)F)ccc23)cc1)N1CC=C(c2ccc(Cl)cc2)CC1", "Dose", 316],
  ["O=C(c1ccc(Nc2ccnc3cc(C(F)(F)F)ccc23)cc1)N1CCNCC1", "Dose", 1000],
  ["O=C(c1ccc(Nc2ccnc3cc(C(F)(F)F)ccc23)cc1)N1CCN(c2ccccn2)CC1", "Dose", 316]
]}

Ask: Using the record for `CS(=O)(=O)c1ccc(N2CCN(C(=O)c3ccc(Nc4ccnc5cc(C(F)(F)F)ccc45)cc3)CC2)cc1` , report its Dose.
Reply: 1000

###

# Test system: Rattus norvegicus
# ASSAY PROTOCOL: Hypotensive activity in conscious rat 24 hr after 5 mg/kg p.o. administration.
# Assay type: functional
# ASSAY CONTEXT: route oral
Each entry falls into one class according to its Activity; the ranges are range A (below -20 mmHg), range B (-20 mmHg to below -8 mmHg), range C (-8 mmHg or more)

Below, 8 molecules whose answers are already recorded.
{"columns": ["STRUCTURE", "CLASSIFICATION"],
 "data": [
  ["CSc1nccc(N2CCN(C(=O)c3ccc(Nc4ccnc5cc(C(F)(F)F)ccc45)cc3)CC2)n1", "range B"],
  ["CN(C)S(=O)(=O)N1CCN(C(=O)c2ccc(Nc3ccnc4cc(C(F)(F)F)ccc34)cc2)CC1", "range C"],
  ["O=C(c1ccc(Nc2ccnc3cc(C(F)(F)F)ccc23)cc1)N1CCN(c2ccc(F)cc2)CC1", "range B"],
  ["COc1ccc(S(=O)(=O)N2CCN(C(=O)c3ccc(Nc4ccnc5cc(C(F)(F)F)ccc45)cc3)CC2)cc1", "range C"],
  ["COc1ccc(C2=CCN(C(=O)c3ccc(Nc4ccnc5cc(C(F)(F)F)ccc45)cc3)CC2)cc1", "range C"],
  ["Cc1cccc(C2(O)CCN(C(=O)c3ccc(Nc4ccnc5cc(C(F)(F)F)ccc45)cc3)CC2)c1", "range C"],
  ["CS(=O)(=O)c1ccc(N2CCN(C(=O)c3ccc(Nc4ccnc5cc(C(F)(F)F)ccc45)cc3)CC2)cc1", "range B"],
  ["COc1ccccc1N1CCN(S(=O)(=O)c2ccc(Nc3ccnc4cc(C(F)(F)F)ccc34)cc2)CC1", "range B"]
]}

Ask: Please report the category associated with `Cc1ccccc1N1CCN(S(=O)(=O)c2ccc(Nc3ccnc4cc(C(F)(F)F)ccc34)cc2)CC1` , nothing else.
Reply: range B

Ask: Please report the category associated with `COc1cc(N2CCN(C(=O)c3ccc(Nc4ccnc5cc(C(F)(F)F)ccc45)cc3)CC2)nc(OC)n1` , nothing else.
Reply: range A

Ask: Please report the category associated with `O=C(c1ccc(Nc2ccnc3cc(C(F)(F)F)ccc23)cc1)N1CCN(S(=O)(=O)c2ccc(Cl)cc2)CC1` , nothing else.
Reply: range A

Ask: Please report the category associated with `COc1ccc(C2(O)CCN(C(=O)c3ccc(Nc4ccnc5cc(C(F)(F)F)ccc45)cc3)CC2)cc1` , nothing else.
Reply: range C

Ask: Please report the category associated with `Cc1ccc(S(=O)(=O)N2CCN(C(=O)c3ccc(Nc4ccnc5cc(C(F)(F)F)ccc45)cc3)CC2)cc1` , nothing else.
Reply: range A

Ask: Please report the category associated with `O=C(c1ccc(Nc2ccnc3cc(C(F)(F)F)ccc23)cc1)N1CCN(c2ccccn2)CC1` , nothing else.
Reply: range B

Ask: Please report the category associated with `O=C(c1ccc(Nc2ccnc3cc(C(F)(F)F)ccc23)cc1)N1CC=C(c2ccc(Cl)cc2)CC1` , nothing else.
Reply: range B

###

# Tested on: Rattus norvegicus
# ASSAY PROTOCOL: Hypotensive activity in conscious rat 4 hr after 5 mg/kg p.o. administration.
# Format: functional
# ASSAY CONTEXT: route oral
# if measured Activity < -10 mmHg: met  # else: not met

Below, 10 molecules whose answers are already recorded.
{"columns": ["STRUCTURE", "CLASSIFICATION"],
 "data": [
  ["Cc1ccc(S(=O)(=O)N2CCN(C(=O)c3ccc(Nc4ccnc5cc(C(F)(F)F)ccc45)cc3)CC2)cc1", "met"],
  ["Cc1cccc(C2=CCN(C(=O)c3ccc(Nc4ccnc5cc(C(F)(F)F)ccc45)cc3)CC2)c1", "not met"],
  ["CSc1nccc(N2CCN(C(=O)c3ccc(Nc4ccnc5cc(C(F)(F)F)ccc45)cc3)CC2)n1", "not met"],
  ["O=C(c1ccc(Nc2ccnc3cc(C(F)(F)F)ccc23)cc1)N1CCN(S(=O)(=O)c2ccc(Cl)cc2)CC1", "met"],
  ["CN(C)S(=O)(=O)N1CCN(C(=O)c2ccc(Nc3ccnc4cc(C(F)(F)F)ccc34)cc2)CC1", "met"],
  ["COc1ccc(S(=O)(=O)N2CCN(C(=O)c3ccc(Nc4ccnc5cc(C(F)(F)F)ccc45)cc3)CC2)cc1", "not met"],
  ["COc1ccc(C2(O)CCN(C(=O)c3ccc(Nc4ccnc5cc(C(F)(F)F)ccc45)cc3)CC2)cc1", "met"],
  ["COc1ccc(C2=CCN(C(=O)c3ccc(Nc4ccnc5cc(C(F)(F)F)ccc45)cc3)CC2)cc1", "not met"],
  ["O=C(c1ccc(Nc2ccnc3cc(C(F)(F)F)ccc23)cc1)N1CCN(c2ccc(F)cc2)CC1", "met"],
  ["COc1ccccc1N1CCN(S(=O)(=O)c2ccc(Nc3ccnc4cc(C(F)(F)F)ccc34)cc2)CC1", "not met"]
]}

Ask: Dear colleague, could you confirm whether Activity of `O=C(c1ccc(Nc2ccnc3cc(C(F)(F)F)ccc23)cc1)N1CC=C(c2ccc(Cl)cc2)CC1` falls below -10 mmHg? Thanks.
Reply: not met

###

# ASSAY PROTOCOL: Acute toxicity was determined in mice
# Format: organism-based
# ASSAY CONTEXT: mouse, in vivo
PARAMETER: LD50 (mg/kg)
One number for each entry, in mg/kg.

{"columns": ["STRUCTURE", "EXPERIMENTAL VALUE"],
 "data": [
  ["O=C(c1ccc(Nc2ccnc3cc(C(F)(F)F)ccc23)cc1)N1CCN(c2ccccn2)CC1", 1400],
  ["CS(=O)(=O)c1ccc(N2CCN(C(=O)c3ccc(Nc4ccnc5cc(C(F)(F)F)ccc45)cc3)CC2)cc1", 3160],
  ["O=C(c1ccc(Nc2ccnc3cc(C(F)(F)F)ccc23)cc1)N1CC=C(c2ccc(Cl)cc2)CC1", 1000],
  ["O=C(c1ccc(Nc2ccnc3cc(C(F)(F)F)ccc23)cc1)N1CCC(O)(c2ccc(Cl)cc2)CC1", 237]
]}

Let us examine a further case.
Ask: Using the record for `O=C(c1ccc(Nc2ccnc3cc(C(F)(F)F)ccc23)cc1)N1CCNCC1` , report its LD50.
Reply: 1780

###

# System: Rattus norvegicus
# ASSAY PROTOCOL: Compound was tested for hypotensive activity by measuring the average change in mean arterial blood pressure in mmHg after 24 hr at 0.5 mg/Kg oral dosing of a conscious rat
# Type: functional, Artery
PARAMETER: Activity (mmHg)
Give bare numbers, in mmHg.

{"columns": ["MOLECULE", "TARGET ENTITY", "UNIT TAG", "EXPERIMENTAL VALUE"],
 "data": [
  ["O=C(c1ccc(Nc2ccnc3cc(C(F)(F)F)ccc23)cc1)N1CCN(S(=O)(=O)c2ccc(F)cc2)CC1 [LOSULAZINE]", "Rattus norvegicus", "mmHg", -15],
  ["O=C(c1ccc(Nc2ccnc3cc(C(F)(F)F)ccc23)cc1)N1CCN(c2ccccn2)CC1", "Rattus norvegicus", "mmHg", -2],
  ["CS(=O)(=O)c1ccc(N2CCN(C(=O)c3ccc(Nc4ccnc5cc(C(F)(F)F)ccc45)cc3)CC2)cc1", "Rattus norvegicus", "mmHg", -5],
  ["CN(C)S(=O)(=O)N1CCN(C(=O)c2ccc(Nc3ccnc4cc(C(F)(F)F)ccc34)cc2)CC1", "Rattus norvegicus", "mmHg", -2]
]}

Ask: Using the record for `COc1cc(N2CCN(C(=O)c3ccc(Nc4ccnc5cc(C(F)(F)F)ccc45)cc3)CC2)nc(OC)n1` , report its Activity.
Reply: -12

Data provenance is ChEMBL document CHEMBL1123201.
